Reported binding signal by item:
- SYSTEM_NAME: GST-Nv-NF-kB (Ser allele) (Nematostella vectensis, UniProt A7UNT2 2-411)
- Sequence: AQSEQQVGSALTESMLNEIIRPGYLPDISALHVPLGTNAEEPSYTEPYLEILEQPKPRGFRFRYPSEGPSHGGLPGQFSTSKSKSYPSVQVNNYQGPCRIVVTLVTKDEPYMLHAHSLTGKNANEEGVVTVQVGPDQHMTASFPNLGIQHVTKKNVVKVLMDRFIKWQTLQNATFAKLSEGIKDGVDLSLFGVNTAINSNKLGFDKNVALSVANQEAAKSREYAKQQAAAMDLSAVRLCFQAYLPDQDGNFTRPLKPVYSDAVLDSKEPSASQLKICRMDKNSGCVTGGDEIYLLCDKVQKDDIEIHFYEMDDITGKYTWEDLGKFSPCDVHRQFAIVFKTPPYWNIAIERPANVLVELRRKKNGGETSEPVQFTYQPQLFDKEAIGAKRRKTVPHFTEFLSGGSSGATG
- EXPERIMENTAL_DETAILS: protein-binding microarray (PBM); PBM: ~300 nM protein, 6 mM HEPES pH 7.8, 80 mM KCl, 0.5 mM EDTA, 0.5 mM EGTA, 6% glycerol, 35 ng/ul poly-dIdC, 1% milk, 1 h, room temperature; Ap Aiptasia and Nv Nematostella (sea anemones) / Co Capsaspora / Aq Amphimedon (sponge) / Dm Drosophila / Hu human; RHD is the Rel homology domain; high values mean tight binding
- PROTOCOL_CONDITIONS: dsDNA, one strand shown
Give just the numeric value; z-score need not be written.

Here is how some sequences turned out for binding signal.
1) CCGATTAACATCAGGAGAGCCCCTGATGTTAATCGGGTCTTGATTCGCTTGACGCTGCTG    1.67
2) CCGATTAACATCAATTTTCCCCATGATGTTAATCGGGTCTTGATTCGCTTGACGCTGCTG    9.27
3) CCGATTAACATCAGGGAATTTCATGATGTTAATCGGGTCTTGATTCGCTTGACGCTGCTG    7.08

// lookup binding signal for CCGATTAACATCAGGAAATCCCCTGATGTTAATCGGGTCTTGATTCGCTTGACGCTGCTG 12.5

Try CCGATTAACATCAATTTTCCCCGTGATGTTAATCGGGTCTTGATTCGCTTGACGCTGCTG next. 10.2

Please do the same for CCGATTAACATCAATTTCCCACCTGATGTTAATCGGGTCTTGATTCGCTTGACGCTGCTG as well. 3.89
